- MEASUREMENT_TARGET: PPARδ (Homo sapiens)
- Construct: expressed in transfected cells; host or cells: SMMC-7721 or U2OS
- Sequence (Q03181 1-441): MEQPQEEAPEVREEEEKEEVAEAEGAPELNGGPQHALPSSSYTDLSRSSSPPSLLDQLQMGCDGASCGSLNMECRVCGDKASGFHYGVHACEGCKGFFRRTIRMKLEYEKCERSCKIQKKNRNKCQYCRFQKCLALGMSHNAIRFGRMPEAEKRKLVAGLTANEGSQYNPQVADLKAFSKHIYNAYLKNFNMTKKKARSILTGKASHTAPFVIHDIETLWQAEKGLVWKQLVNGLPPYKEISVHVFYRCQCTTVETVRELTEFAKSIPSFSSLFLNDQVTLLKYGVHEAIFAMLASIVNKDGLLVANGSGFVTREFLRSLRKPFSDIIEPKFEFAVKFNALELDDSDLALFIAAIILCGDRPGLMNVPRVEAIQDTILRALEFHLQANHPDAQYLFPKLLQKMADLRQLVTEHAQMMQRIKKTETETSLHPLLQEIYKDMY
- Sequence (P19793 1-462 partner): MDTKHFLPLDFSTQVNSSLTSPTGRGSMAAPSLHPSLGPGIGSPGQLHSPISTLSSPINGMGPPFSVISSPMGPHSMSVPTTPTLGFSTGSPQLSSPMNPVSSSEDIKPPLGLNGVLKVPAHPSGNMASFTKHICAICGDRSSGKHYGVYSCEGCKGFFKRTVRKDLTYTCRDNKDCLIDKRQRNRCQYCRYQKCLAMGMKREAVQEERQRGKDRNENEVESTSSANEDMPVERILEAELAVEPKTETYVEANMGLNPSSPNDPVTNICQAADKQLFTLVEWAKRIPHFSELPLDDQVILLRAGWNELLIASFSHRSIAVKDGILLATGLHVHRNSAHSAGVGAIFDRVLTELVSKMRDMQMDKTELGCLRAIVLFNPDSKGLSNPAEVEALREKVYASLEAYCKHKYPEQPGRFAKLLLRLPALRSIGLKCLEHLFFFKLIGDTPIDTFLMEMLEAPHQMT
- ASSAY_REMARKS: PPARδ transactivation reporter gene assay in SMMC-7721 cells
- Format: cell-based
pEC50: −log10 of the molar value.
VALUE_TYPE: pEC50

[[record]]
molecule = "CCCCCCCCCCCCCCC(Br)C(=O)O (stereo not shown) [2-Bro, 2-bromohexadecanoic acid, reference compound]"
measurement_target = "PPARδ (Homo sapiens)"
assay_result = 5.29


----------
- Test system: SMMC-7721 cells
- ASSAY_REMARKS: Gene expression by RT-PCR in SMMC-7721 cells
- Format: cell-based, human
- CONDITION_NOTES: 48 h, 10 μM rosiglitazone, 50 μM WY14643, 5 μM 2-Bro, 10 μM chiglitazar
VALUE_TYPE: Expression of LDL receptor (LDLR)

[[record]]
compound = "Cc1cccc(Nc2cc(Cl)nc(SCC(=O)O)n2)c1C [WY, WY14643]"
assay_result = "downregulated"

[[record]]
compound = "CN(CCOc1ccc(CC2SC(=O)NC2=O)cc1)c1ccccn1 (stereo not shown) [Ros, rosiglitazone, reference compound]"
assay_result = "downregulated"


----------
- MEASUREMENT_TARGET: PPARδ (Homo sapiens)
- Construct: expressed in transfected cells; host or cells: SMMC-7721 or U2OS
- Sequence (Q03181 1-441): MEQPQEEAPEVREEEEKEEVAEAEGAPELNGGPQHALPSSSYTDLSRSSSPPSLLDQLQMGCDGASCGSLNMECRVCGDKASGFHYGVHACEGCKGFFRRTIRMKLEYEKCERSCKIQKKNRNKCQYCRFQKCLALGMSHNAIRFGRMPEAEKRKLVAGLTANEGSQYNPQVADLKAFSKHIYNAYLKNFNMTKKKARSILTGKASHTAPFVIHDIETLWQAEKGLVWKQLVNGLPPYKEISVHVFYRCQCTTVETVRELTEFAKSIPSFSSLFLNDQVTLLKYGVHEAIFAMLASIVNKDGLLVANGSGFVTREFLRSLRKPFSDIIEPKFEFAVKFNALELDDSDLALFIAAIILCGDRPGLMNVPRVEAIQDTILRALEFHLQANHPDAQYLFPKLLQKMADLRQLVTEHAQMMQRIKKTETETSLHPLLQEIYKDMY
- Sequence (P19793 1-462 partner): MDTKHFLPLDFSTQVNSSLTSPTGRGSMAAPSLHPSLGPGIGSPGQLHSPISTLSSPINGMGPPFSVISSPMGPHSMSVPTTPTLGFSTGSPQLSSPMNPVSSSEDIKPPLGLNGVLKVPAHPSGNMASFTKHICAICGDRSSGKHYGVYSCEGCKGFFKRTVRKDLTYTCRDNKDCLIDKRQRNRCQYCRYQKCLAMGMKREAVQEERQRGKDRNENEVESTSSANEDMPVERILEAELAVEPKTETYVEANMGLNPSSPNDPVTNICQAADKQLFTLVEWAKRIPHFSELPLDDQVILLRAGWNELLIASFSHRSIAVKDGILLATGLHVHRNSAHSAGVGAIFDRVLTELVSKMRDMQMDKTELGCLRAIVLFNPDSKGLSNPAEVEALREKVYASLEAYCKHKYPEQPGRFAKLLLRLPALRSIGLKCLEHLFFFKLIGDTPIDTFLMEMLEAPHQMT
- ASSAY_REMARKS: PPARδ transactivation reporter gene assay in U2OS cells
- Format: cell-based
- CONDITION_NOTES: U2OS cells, 24 h treatment, luciferase reporter, hRXR cotransfected; ia: inactive at 10 μM; read-out: PPARδ EC50
VALUE_TYPE: EC50 (nM)

[[record]]
molecule = "O=C(c1ccc(F)cc1)c1ccccc1NC(Cc1ccc(OCCn2c3ccccc3c3ccccc32)cc1)C(=O)O (stereo not shown)"
units_label = "nM"
assay_result = 1500


----------
- MEASUREMENT_TARGET: PPARγ (Homo sapiens, UniProt P37231)
- Construct: expressed in transfected cells; host or cells: SMMC-7721 or U2OS
- Sequence (P37231 1-505): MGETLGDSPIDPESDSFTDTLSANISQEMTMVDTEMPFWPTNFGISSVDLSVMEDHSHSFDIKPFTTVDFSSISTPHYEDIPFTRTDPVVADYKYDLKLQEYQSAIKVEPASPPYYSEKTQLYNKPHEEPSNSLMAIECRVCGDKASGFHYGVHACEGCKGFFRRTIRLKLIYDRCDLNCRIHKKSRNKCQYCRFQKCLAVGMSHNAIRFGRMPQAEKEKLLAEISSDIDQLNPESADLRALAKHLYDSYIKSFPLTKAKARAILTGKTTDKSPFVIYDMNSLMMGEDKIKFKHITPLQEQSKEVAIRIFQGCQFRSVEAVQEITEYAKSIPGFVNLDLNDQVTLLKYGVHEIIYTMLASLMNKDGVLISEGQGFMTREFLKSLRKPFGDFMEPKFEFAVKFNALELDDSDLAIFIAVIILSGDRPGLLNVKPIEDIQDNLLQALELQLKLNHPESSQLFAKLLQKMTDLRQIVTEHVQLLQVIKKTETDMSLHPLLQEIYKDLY
- Sequence (P19793 1-462 partner): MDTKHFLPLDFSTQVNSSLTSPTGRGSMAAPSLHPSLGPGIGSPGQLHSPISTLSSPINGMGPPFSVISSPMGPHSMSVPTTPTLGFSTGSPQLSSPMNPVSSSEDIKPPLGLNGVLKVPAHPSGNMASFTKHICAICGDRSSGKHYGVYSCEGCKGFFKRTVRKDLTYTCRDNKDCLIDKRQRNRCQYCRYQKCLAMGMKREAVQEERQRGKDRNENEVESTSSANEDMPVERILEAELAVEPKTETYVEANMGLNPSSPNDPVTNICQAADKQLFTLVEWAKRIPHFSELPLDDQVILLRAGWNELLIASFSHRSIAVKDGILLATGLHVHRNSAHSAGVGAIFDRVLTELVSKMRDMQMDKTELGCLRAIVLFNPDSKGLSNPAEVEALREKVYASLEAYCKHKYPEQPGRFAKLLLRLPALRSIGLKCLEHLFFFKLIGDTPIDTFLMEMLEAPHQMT
- ASSAY_REMARKS: PPARγ transactivation reporter gene assay in U2OS cells
- Format: cell-based
- CONDITION_NOTES: 24 h treatment, luciferase reporter, hRXR cotransfected, ia: inactive at 10 μM
pEC50: −log10 of the molar value.
VALUE_TYPE: pEC50

[[record]]
compound = "O=C(c1ccc(F)cc1)c1ccccc1NC(Cc1ccc(OCCn2c3ccccc3c3ccccc32)cc1)C(=O)O (stereo not shown)"
assay_result = 7.10


----------
- MEASUREMENT_TARGET: PPARγ (Homo sapiens, UniProt P37231)
- Construct: expressed in transfected cells; host or cells: SMMC-7721 or U2OS
- ASSAY_REMARKS: PPARγ transactivation reporter gene assay in SMMC-7721 cells
- Type: cell-based
- CONDITION_NOTES: SMMC-7721 cells, 24 h treatment, luciferase reporter, hRXR cotransfected; ia: inactive at 10 μM; read-out: PPARγ EC50
pEC50: −log10 of the molar value.
VALUE_TYPE: pEC50

[[record]]
compound = "O=C(c1ccc(F)cc1)c1ccccc1NC(Cc1ccc(OCCn2c3ccccc3c3ccccc32)cc1)C(=O)O (stereo not shown) [Chi]"
measurement_target = "PPARγ (Homo sapiens, UniProt P37231)"
value_type = "pEC50"
assay_result = 7.05

